Procedure Summary: Encapsulation efficiency of lipid nanoparticles (Quant-it Ribogreen RNA quantification assay)
Assay type: physicochemical
Conditions Used: LNP encapsulating hEPO mRNA; Table 3
Observation Type: Encapsulation Efficiency (%)

{"Compound": "CCCCCCCCC(CCCCCC)CC(=O)NCCCCCN(CCCCCNC(=O)CC(CCCCCC)CCCCCCCC)CCN(CCO)C1CCCCCC1 (stereo not shown) [Compound 116]", "Uom": "%", "Measured": 94.5}
{"Compound": "CCCCCCCCC(CCCCCC)CNC(=O)NCCCCN(CCCCNC(=O)NCC(CCCCCC)CCCCCCCC)CCN(CCO)C1CCC1 (stereo not shown) [Compound 121]", "Uom": "%", "Measured": 94.5}
{"Compound": "CCCCCC/C=C\\COC(=O)CCCCCN(CCCC(=O)OC(CCCCCCC)CCCCCCC)CCN(CCO)C1CCC1 [Compound 46]", "Uom": "%", "Measured": 93.8}
{"Compound": "CCCCCCCCC(CCCCCCCC)CC(=O)NCCCCCN(CCCCCOC(=O)CC(CCCCCCCC)CCCCCCCC)CCN(CCO)C1CCCC1 [Compound 143]", "Uom": "%", "Measured": 93.2}
{"Compound": "CCCCCCCCCCC(CCCCCC)COC(=O)CCCCN(CCCCC(=O)OCC(CCCCCC)CCCCCCCCCC)CCN(CCO)C1CCC1 (stereo not shown) [Compound 42]", "Uom": "%", "Measured": 96.4}
{"Compound": "CCCCCCCCC(CCCCCC)COC(=O)CCCCCN(CCCCCC(=O)OCC(CCCCCC)CCCCCCCC)CCN(CCOC(C)=O)C1CCC1 (stereo not shown) [Compound 64]", "Uom": "%", "Measured": 84.1}
{"Compound": "CCCCCCCCC(CCCCCC)C(C)OC(=O)CCCCCN(CCCCCC(=O)OC(C)C(CCCCCC)CCCCCCCC)CCN(CCO)C1CCC1 (stereo not shown) [Compound 38]", "Uom": "%", "Measured": 98.7}

###

Procedure Summary: Lipid nanoparticle size by dynamic light scattering (Malvern Zetasizer Nano ZS)
Assay type: physicochemical
Conditions Used: LNP: cationic lipid/DSPC/cholesterol/PEG-lipid 50:10:38.5:1.5, hEPO mRNA; Table 3
Observation Type: polydispersity

{"Molecule": "CCCCCCCCC(CCCCCCCC)CNC(=O)CCCCCN(CCCCCC(=O)OCC(CCCCCCCC)CCCCCCCC)CCN(CCO)C1CCCCCC1 [Compound 139]", "polydispersity": 0.052}
{"Molecule": "CCCCCCCCC(CCCCCC)COC(=O)CCCCCN(CCCCCC(=O)OCC(CCCCCC)CCCCCCCC)CCN(CC(C)O)C1CCC1 (stereo not drawn) [Compound 32]", "polydispersity": 0.039}

[A] CCCCCCCCC(CCCCCC)COC(=O)CCCCCCN(CCCCCCC(=O)OCC(CCCCCC)CCCCCCCC)CCN(CCO)C1CCC1 (stereo not drawn) [Compound 37]
[B] CCCCC/C=C\CCCC(CCC/C=C\CCCCC)COC(=O)CCCCCN(CCCCCC(=O)OCC(CCC/C=C\CCCCC)CCC/C=C\CCCCC)CCN(CCO)C1CCC1 [Compound 66]
[C] CCCCCCCCC(CCCCCC)COC(=O)CCCCCC(CCCCCC(=O)OCC(CCCCCC)CCCCCCCC)CN(CC)CCO (stereo not drawn) [Compound 16]
[D] CCCCCCCCC(CCCCCC)COC(=O)CCCCCN(CCCCCC(=O)OCC(CCCCCC)CCCCCCCC)CCN(CCCO)C1CCC1 (stereo not drawn) [Compound 28]
**Q:** Falling order of polydispersity, please. List the labels in the requested order.
**A:** C, B, A, D
